The entries below are paired with their reported MIC.
# System: C. parapsilosis ATCC 22019
# ASSAY_INFO: microbe, parasite or virus in culture
# Format: cell-based
# CONDITION_SUMMARY: ATCC 22019, pH 7
Express it in µg/mL; write the number only.

Consider the reported MIC for these compounds:
{"COMPOUND_STRUCTURE": "CC[C@H](C)C[C@H](C)CCCCCCCCC(=O)N[C@H]1C[C@@H](O)[C@@H](NCCN)NC(=O)[C@@H]2[C@@H](O)CCN2C(=O)[C@H]([C@H](O)CCNC(=O)[C@@H](N)CCCCNC(=O)[C@H](Cc2ccccc2)NC(=O)[C@H](CC(C)C)NC(=O)[C@H](CCSC)NC=O)NC(=O)[C@H]([C@H](O)[C@@H](O)c2ccc(O)cc2)NC(=O)[C@@H]2C[C@@H](O)CN2C(=O)[C@H]([C@@H](C)O)NC1=O", "METRIC_NAME": "MIC", "UNIT_ABBREV": "µg/mL", "ENDPOINT_VALUE": 16}
{"COMPOUND_STRUCTURE": "CC[C@H](C)C[C@H](C)CCCCCCCCC(=O)N[C@H]1C[C@@H](O)[C@@H](OCCN)NC(=O)[C@@H]2[C@@H](O)CCN2C(=O)[C@H]([C@H](O)CCNC(=O)CCNC(=O)[C@H](Cc2ccccc2)NC(=O)[C@H](CC(C)C)NC(=O)[C@H](CCSC)NC=O)NC(=O)[C@H]([C@H](O)[C@@H](O)c2ccc(O)cc2)NC(=O)[C@@H]2C[C@@H](O)CN2C(=O)[C@H]([C@@H](C)O)NC1=O", "METRIC_NAME": "MIC", "UNIT_ABBREV": "µg/mL", "ENDPOINT_VALUE": 32}
{"COMPOUND_STRUCTURE": "CC[C@H](C)C[C@H](C)CCCCCCCCC(=O)N[C@H]1C[C@@H](O)[C@@H](NCCN)NC(=O)[C@@H]2[C@@H](O)CCN2C(=O)[C@H]([C@H](O)CCNC(=O)CCNC(=O)[C@H](Cc2ccccc2)NC(=O)[C@H](CC(C)C)NC(=O)[C@H](CCSC)NC(C)=O)NC(=O)[C@H]([C@H](O)[C@@H](O)c2ccc(O)cc2)NC(=O)[C@@H]2C[C@@H](O)CN2C(=O)[C@H]([C@@H](C)O)NC1=O", "METRIC_NAME": "MIC", "UNIT_ABBREV": "µg/mL", "ENDPOINT_VALUE": 32}

Proceed to the following item.
Query: # get_value(readout='MIC', item= "CC[C@H](C)C[C@H](C)CCCCCCCCC(=O)N[C@H]1C[C@@H](O)[C@@H](NCCN)NC(=O)[C@@H]2[C@@H](O)CCN2C(=O)[C@H]([C@H](O)CCNC(=O)[C@H](Cc2ccccc2)NC(=O)[C@H](CC(C)C)NC(=O)[C@H](CCSC)NC=O)NC(=O)[C@H]([C@H](O)[C@@H](O)c2ccc(O)cc2)NC(=O)[C@@H]2C[C@@H](O)CN2C(=O)[C@H]([C@@H](C)O)NC1=O" )
Reply: 16

---

# System: A. fumigatus MX 5944
# ASSAY_INFO: MEC assay (Example 31)
# Format: cell-based
# CONDITION_SUMMARY: RPMI pH 7.0, 35° C., 24-48 hr
METRIC_NAME: MEC (µg/mL)
Unit µg/mL implied. Number only.

Worked set:
{"COMPOUND_STRUCTURE": "CC[C@H](C)C[C@H](C)CCCCCCCCC(=O)N[C@H]1C[C@@H](O)[C@@H](NCCN)NC(=O)[C@@H]2[C@@H](O)CCN2C(=O)[C@H]([C@H](O)CCNC(=O)[C@H](CCCCN)NC(=O)[C@H](Cc2ccccc2)NC(=O)[C@H](CC(C)C)NC(=O)[C@H](CCSC)NC=O)NC(=O)[C@H]([C@H](O)[C@@H](O)c2ccc(O)cc2)NC(=O)[C@@H]2C[C@@H](O)CN2C(=O)[C@H]([C@@H](C)O)NC1=O", "SYSTEM": "A. fumigatus MX 5944", "METRIC_NAME": "MEC", "ENDPOINT_VALUE": 0.12}
{"COMPOUND_STRUCTURE": "CC[C@H](C)C[C@H](C)CCCCCCCCC(=O)N[C@H]1C[C@@H](O)[C@@H](NCCNC(=O)CCNC(=O)[C@H](Cc2ccccc2)NC(=O)[C@H](CC(C)C)NC(=O)[C@H](CCSC)NC(C)=O)NC(=O)[C@@H]2[C@@H](O)CCN2C(=O)[C@H]([C@H](O)CCN)NC(=O)[C@H]([C@H](O)[C@@H](O)c2ccc(O)cc2)NC(=O)[C@@H]2C[C@@H](O)CN2C(=O)[C@H]([C@@H](C)O)NC1=O", "SYSTEM": "A. fumigatus MX 5944", "METRIC_NAME": "MEC", "ENDPOINT_VALUE": 1}
{"COMPOUND_STRUCTURE": "CC[C@H](C)C[C@H](C)CCCCCCCCC(=O)N[C@H]1C[C@@H](O)[C@@H](OCCNC(=O)CCNC(=O)[C@H](Cc2ccccc2)NC(=O)[C@H](CC(C)C)NC(=O)[C@H](CCSC)NC=O)NC(=O)[C@@H]2[C@@H](O)CCN2C(=O)[C@H]([C@H](O)CCN)NC(=O)[C@H]([C@H](O)[C@@H](O)c2ccc(O)cc2)NC(=O)[C@@H]2C[C@@H](O)CN2C(=O)[C@H]([C@@H](C)O)NC1=O", "SYSTEM": "A. fumigatus MX 5944", "METRIC_NAME": "MEC", "ENDPOINT_VALUE": 0.12}

Please examine the following record next.
Query: Look up MEC: "CC[C@H](C)C[C@H](C)CCCCCCCCC(=O)N[C@H]1C[C@@H](O)[C@@H](NCCNC(=O)CCNC(=O)[C@H](Cc2ccccc2)NC(=O)[C@H](CC(C)C)NC(=O)[C@H](CCSC)NC=O)NC(=O)[C@@H]2[C@@H](O)CCN2C(=O)[C@H]([C@H](O)CCN)NC(=O)[C@H]([C@H](O)[C@@H](O)c2ccc(O)cc2)NC(=O)[C@@H]2C[C@@H](O)CN2C(=O)[C@H]([C@@H](C)O)NC1=O"
Reply: 1
